# %Inh per record follows
tested on: CSNK1G1; settings: concentration: 1 μM, replicates: in singlicate; n = 1
Value expressed in %; do not type the unit.

# molecule, units, %Inh
measured = [
    ("CCS(=O)(=O)c1ccc(OC)c(Nc2ncc(-c3ccc(F)cc3)o2)c1.Cl [GW591947]", "%", 13),
]

Read the next record carefully.
## Task Would you mind telling me what %Inh value was observed for COc1ccc(-c2coc3ccc(-c4nnc(SCc5cccc(C#N)c5)o4)cc23)cc1 ?
## Result 11

====

tested on: EPHA1; details: concentration: 1 μM, replicates: in singlicate; n = 1
# %Inh per record follows
Value expressed in %; do not type the unit.

## Task Would you mind telling me what %Inh value was observed for O=C1NC(=O)C(c2ccccc2)=C1Nc1cccc(O)c1 ?
## Result 24

## Task Would you mind telling me what %Inh value was observed for Cc1nc(N(C)[C@H]2CN(C(=O)CC#N)CC[C@H]2C)c2cc[nH]c2n1 ?
## Result 0

====

# pKd per record follows
test system: GRK3; construct: gene ADRBK2;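 also: kd values determined as follow-up on hits from a single-replicate KINOMEscan panel screen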
pKd: −log10 of the molar value.

Illustrative cases are given below, each with its answer.
# molecule, result
records = [
    ("O=C(Nc1n[nH]c2nc(-c3ccccc3)c(Cl)cc12)C1CC1 [SB-734909]", "< 5.00"),
    ("Nc1nccc2scc(-c3ccc4c(c3)CCN4C(=O)Cc3ccccc3)c12 [GSK2576924]", "< 5.00"),
]

Read the next record carefully.
## Task Would you mind telling me what pKd value was observed for Cc1nn2c(=O)cc(N3CCOCC3)nc2n1Cc1cccc(Cl)c1Cl [GSK2342769] ?
## Result < 5.00

====

tested on: PAK3; settings: concentration: 1 μM, replicates: in singlicate; n = 1
endpoint: %Inh (%)
Value expressed in %; do not type the unit.

## Task Provide the documented %Inh with PAK3 as the system for CCC(=O)c1c(-c2ccccc2)c2cc(Cl)ccc2c(=O)n1Cc1cc(S(C)(=O)=O)n(CC(N)=O)n1
## Result 0

## Task Provide the documented %Inh with PAK3 as the system for CCS(=O)c1ccc(-c2coc3ccc(-c4nnc(C)o4)cc23)cc1 (stereo not drawn)
## Result 33

## Task Provide the documented %Inh with PAK3 as the system for CCc1nc(-c2cccc(C)c2)c(-c2ccncc2)s1
## Result 0

## Task Provide the documented %Inh with PAK3 as the system for Cc1ccc(Oc2ccc(Nc3ncnc4cc[nH]c34)cc2C)cn1
## Result 4

## Task Provide the documented %Inh with PAK3 as the system for CCCC(=O)Nc1n[nH]c2ncc(-c3cccc4ccccc34)cc12 [SB-642057]
## Result 0

## Task Provide the documented %Inh with PAK3 as the system for COc1cc2ncn(-c3cc(OCc4ccncc4)c(C(N)=O)s3)c2cc1OC [GSK336313]
## Result 0

## Task Provide the documented %Inh with PAK3 as the system for Nc1n[nH]c2ncc(-c3ccccc3)cc12 [SB-517081]
## Result 0

## Task Provide the documented %Inh with PAK3 as the system for COc1ccc(Nc2nccc(N3CCC(NS(=O)(=O)c4ccc(NC(C)=O)cc4)C3)n2)cc1 (stereo not drawn) [GSK1379729]
## Result 7

## Task Provide the documented %Inh with PAK3 as the system for O=C(Nc1n[nH]c2nc(-c3ccccc3)c(Br)cc12)C1CC1 [SB-708998]
## Result 9
